# PROTOCOL DETAILS: soluble on expression in E. coli; label from the status in PepcDB or PDB records

- SEQUENCE RECORD: "MTKKKAHKPGSATIALNKRARHEYFIEEEFEAGLALQGWEVKSLRAGKANISDSYVLLRDGEAFLFGANITPMAVASTHVVCDPTRTRKLLLNQRELDSLYGRVNREGYTVVALSLYWKNAWCKVKIGVAKGKKQHDKRSDIKEREWQVDKARIMKNAHR"
  soluble on expression in E. coli: "soluble"
- SEQUENCE RECORD: "MSLGLTTKPLSLKVNAALFDVDGTIIISQPAIAAFWRDFGKDKPYFDAEHVIQVSHGWRTFDAIAKFAPDFANEEYVNKLEAEIPVKYGEKSIEVPGAVKLCNALNALPKEKWAVATSGTRDMAQKWFEHLGIRRPKYFITANDVKQGKPHPEPYLKGRNGLGYPINEQDPSKSKVVVFEDAPAGIAAGKAAGCKIIGIATTFDLDFLKEKGCDIIVKNHESIRVGGYNAETDEVEFIFDDYLYAKDDLLKWEGHHHHHH"
  soluble on expression in E. coli: "soluble"
- SEQUENCE RECORD: "MLTVIAEIRTRPGQHHRQAVLDQFAKIVPTVLKEEGCHGYAPMVDCAAGVSFQSMAPDSIVMIEQWESIAHLEAHLQTPHMKAYSEAVKGDVLEMNIRILQPGI"
  soluble on expression in E. coli: "soluble"

----------
# PROTOCOL DETAILS: soluble on expression in E. coli; label from the status in PepcDB or PDB records
METRIC NAME: soluble on expression in E. coli

The following sequences have reported results that may help.
- SEQUENCE RECORD: "MGSDKIHHHHHHACDGKVYKKGDKIMFGVPKVSGYLFVRTFTKDGKISTMPKENLASQEAVIVDIPDYDKKLFEGMGVYSEVETHPLVVVELDGRRLCININDALSQGNIVSEYFKSEVEGMVDLTSDLLFVYALKLNNVTVDDDVIVRYMAHCDKNLVEKNQADPFTMADLKKEYAAKLEKALGDVDFSKVFRIESQSEMLQYDMDKQIFPLKGLWCPQIKTDQPDALAKIGFCKWDDCVFRFVNIPEFMNVPCETARAKGFYDMRKVGKVPTYNTPLATSYTYIRFLDKKVQLPEKKNKVYHNGDIKSMSLADLYGKMAIEAQIIKMDVYHLPFLKISDFELFYNYLGSIEVK"
  soluble on expression in E. coli: "not soluble"
- SEQUENCE RECORD: "MENNLAEFERRAEKNLLIMCKEKEKLQKKAHELKRRLLLSQRKRELADVLDAQIEMLSPFEAVATRFKEQYRTFATALDTTRHELPVRSIHLEGDGQQLLDALQHELVTTQRLLGELDVGDSEENVQVLDLLSELKDVTAKKDLELRRSFAQVLELSAEASKEAALANQEVWEETQGMAPPSRWYFNQDSACRESGGAPKNTPLSEDDNPGASSAPAQATFISPSEDFSSSSQAEVPPSLSRSGRDLS"
  soluble on expression in E. coli: "soluble"
- SEQUENCE RECORD: "MEKLINRVGPNGESRAQAVTSDQEKRLLHQLREITRVMKEGKFIDTSPEKEAEEAPYMEDWEGYPEETYPIYDLSDGIKRRQETILVDYPDLKEPSAEEIAEQMGEIEEEGSERLSWDHLPTDPGAQKDNSVAPCDPKPESCSCCVHEEEDPAVLAENAGFSADGYSEQEEATKENLPQDFTNEGLGVSTDNAHVGGMLRKRNPQGFE"
  soluble on expression in E. coli: "not soluble"
- SEQUENCE RECORD: "VQLLESGPGLVKPAQTLSLSCAVSGGSIRSGGYYWSWIRQHPGKGLEWIGYIYHSGNTYYNPSLKSRIAMSVDTSENKFSLRLNSVTAADTAVYYCARLDGYTLDIWGQGTLVTVSSSTKGPSVFPLAPSSKSTSGGTAALGCLVKDYFPEPVTVSWNSGALTSGVHTFPAVLQSSGLYSLSSVVTVPSSSLGTQTYICNVNHKPSNTKVDKRVEP"
  soluble on expression in E. coli: "soluble"
- SEQUENCE RECORD: "MGHHHHHHSHMAQKPGTMAQMRNGTSGGDKRQYETEVIILNQCRKLNGQIFIQRDYSKGLDVQFEAEYPARLTEKVPRDVWENTIVRINRIFADAEAITPQTIFETVLGCFTCYASYAITKSTYRRKLDELQEFLNRENREIYHHVGFHIRNPMERGLRVLEISLLSRQGETPRDDVDSPGGAIRTI"
  soluble on expression in E. coli: "not soluble"
- SEQUENCE RECORD: "MSEVNIVVNGREAGSKSKGCALCGATWGDYHADFLGEDLFFCCDICAAEFMNMMDEAFKHTARHNVDELHIDGNYQLGRNVLLKNGEDRLRFYVKFGPGAVIKEFKITD"
  soluble on expression in E. coli: "soluble"
- SEQUENCE RECORD: "MDSKEVLVHVKNLEKNKSNDAAVLEILHVLDKEFVPTEKLLRETKVGVEVNKFKKSTNVEISKLVKKMISSWKDAINKNKRSRQAQQHHQDHAPGNAEDKTTVGESVNGVQ"
  soluble on expression in E. coli: "soluble"
- SEQUENCE RECORD: "GMKLQTTIQHEPKDGSGFDRGLREFFEYRDTGVNEATGGMFGAHVIRAIPGKEAKPTWHTHTVGFQLFYVLRGWVEFEYEDIGAVMLEAGGSAFQPPGVRHRELRHSDDLEVLEIVSPAGFATSVVDLEEARKP"
  soluble on expression in E. coli: "soluble"

Kindly review the next sequence as well.
IN: Find the recorded soluble on expression in E. coli belonging to SLPLPLVVAVLDSEDEKEGRTCAIVAFGFRYIHPASGAQVDVPEGYVTDFASIPAPVRGLFPPFGRHAKAAVLHDWLYLIGEPGQRAFADRIFLDAMDDLRVSLVRRSIMHRAVRLAGGGAYAKEASTWARAFGNWRTGDRHTPPFTAESRYQAHWPVPPRPDFRP and report it.
OUT: not soluble
